Hello, the source for this data is ChEMBL document CHEMBL4665867, in case you need it.

target_or_system: Sphingosine kinase 1/2 (Rattus norvegicus, UniProt Q91V26+A6JB73)
method_description: Prodrug conversion in rat blood assessed as SPHK1/SPHK2-mediated compound phosphorylation by measuring Vmax by LC-MS/MS analysis
Type: ADME, tissue-based
measured_endpoint: Vmax (pmol/min)

{"columns": ["compound", "value_unit", "Vmax"],
 "data": [
  ["CCCc1nc(-c2ccc(-c3ccc(CC[C@@H](N)CO)cc3)cc2)co1.Cl", "pmol/min", 16.15]
]}

[P] CCCc1nc(-c2ccc(-c3ccc(CC[C@@](C)(N)CO)cc3)cc2)co1.Cl
[Q] CCCCCCCCc1ccc(CCC(N)(CO)CO)cc1.Cl [FINGOLIMOD HYDROCHLORIDE]
[R] CCCc1nc(-c2ccc(-c3ccc(CCC(N)(CO)CO)cc3)cc2)co1.Cl
Prompt: Sort these compounds on Vmax so the largest reading comes first. List each label, following the requested order.
Completion: Q, R, P
(Q: 61.3 pmol/min, R: 37.24 pmol/min, P: 4.13 pmol/min)
